Biological target: Serine/threonine-protein kinase 33 (Homo sapiens) (UniProt Q9BYT3)
Sequence (Q9BYT3 whole entry, looked up): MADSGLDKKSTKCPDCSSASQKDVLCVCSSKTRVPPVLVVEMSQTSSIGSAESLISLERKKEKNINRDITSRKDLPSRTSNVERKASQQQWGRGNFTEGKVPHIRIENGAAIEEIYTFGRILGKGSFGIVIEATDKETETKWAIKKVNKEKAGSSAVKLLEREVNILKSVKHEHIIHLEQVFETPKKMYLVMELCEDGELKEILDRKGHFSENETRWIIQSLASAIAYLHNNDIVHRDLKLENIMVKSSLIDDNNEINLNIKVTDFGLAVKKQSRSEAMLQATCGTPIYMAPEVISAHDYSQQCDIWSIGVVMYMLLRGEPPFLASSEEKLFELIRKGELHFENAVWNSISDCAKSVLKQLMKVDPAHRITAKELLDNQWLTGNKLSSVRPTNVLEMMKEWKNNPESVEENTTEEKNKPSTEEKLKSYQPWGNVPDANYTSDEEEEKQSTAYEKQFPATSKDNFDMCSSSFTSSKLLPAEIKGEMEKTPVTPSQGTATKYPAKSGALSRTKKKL
Assay: STK33 kinase inhibitors, primary screen, biochemical, luminescence, ADP-Glo, MBP substrate (AID 2322)
Conditions: at 12.5 µM, stronger effect = higher value
The campaign covered roughly 27,000 compounds. About 120 (0.44%) were called active. The entries come from a sample that favours actives as a whole.

# Compound, Assay Target, Unit, inhibition
measured = [
    ("Cc1cc(Cl)ccc1NC(=O)CN(c1ccc(Cl)c(Cl)c1)S(C)(=O)=O", "Serine/threonine-protein kinase 33 (Homo sapiens) (UniProt Q9BYT3)", "%", -1.61),
    ("C[C@H](CO)N1C[C@H](C)[C@@H](CN(C)C(=O)C2CCCCC2)OCc2cnnn2CCCC1=O", "Serine/threonine-protein kinase 33 (Homo sapiens) (UniProt Q9BYT3)", "%", 0.882),
    ("COc1ccc(C(=O)N(Cc2nc(-c3ccccc3)no2)C(C)C)cc1[N+](=O)[O-]", "Serine/threonine-protein kinase 33 (Homo sapiens) (UniProt Q9BYT3)", "%", -9.54),
    ("COc1ccc(C(C)=O)cc1CSc1nnc(-c2ccc(Br)cc2)n1-c1ccccc1", "Serine/threonine-protein kinase 33 (Homo sapiens) (UniProt Q9BYT3)", "%", -0.65),
    ("COc1ccc(N2C(=O)CC(SCC(=O)Nc3ccccc3F)C2=O)cc1 (stereo not drawn)", "Serine/threonine-protein kinase 33 (Homo sapiens) (UniProt Q9BYT3)", "%", 0.679),
    ("COc1ccc(NC(=O)O[C@@H](c2ccc(OCCO)cc2)[C@@H](C)CCO)cc1", "Serine/threonine-protein kinase 33 (Homo sapiens) (UniProt Q9BYT3)", "%", 0.388),
    ("CN(CC(=O)Nc1c(F)cccc1F)S(=O)(=O)c1ccc(Cl)cc1", "Serine/threonine-protein kinase 33 (Homo sapiens) (UniProt Q9BYT3)", "%", 0.176),
    ("C[C@@H]1CN([C@H](C)CO)C(=O)CCCn2nncc2CO[C@@H]1CN(C)S(=O)(=O)c1cccc(C#N)c1", "Serine/threonine-protein kinase 33 (Homo sapiens) (UniProt Q9BYT3)", "%", -5.23),
    ("COc1cc(-c2nc3ccccc3s2)ccc1OCC(=O)Nc1ccc(C)cc1", "Serine/threonine-protein kinase 33 (Homo sapiens) (UniProt Q9BYT3)", "%", 1.24),
    ("COc1ccc(/C=C/C(=O)O[C@@H]2[C@@H](OC(=O)/C=C/c3ccc(OC)cc3)[C@H](C)O[C@@H](O[C@H]3[C@@H]4C=CO[C@@H](O[C@@H]5O[C@H](CO)[C@@H](O)[C@H](O)[C@H]5O)[C@@H]4[C@@]4(CO)O[C@@H]34)[C@@H]2OC(C)=O)cc1", "Serine/threonine-protein kinase 33 (Homo sapiens) (UniProt Q9BYT3)", "%", -0.911),
    ("COC(=O)c1c(-c2cccnc2)csc1NC(=O)c1cc(-c2ccc(C)o2)nc2ccccc12", "Serine/threonine-protein kinase 33 (Homo sapiens) (UniProt Q9BYT3)", "%", 9.69),
    ("COC(=O)Nc1ccc(S(=O)(=O)N2CCCC(C(=O)Nc3ccc(N(C)C)cc3)C2)cc1 (stereo not drawn)", "Serine/threonine-protein kinase 33 (Homo sapiens) (UniProt Q9BYT3)", "%", -2.4),
    ("Nc1ccc2c3c(cccc13)C(=O)NC2=O", "Serine/threonine-protein kinase 33 (Homo sapiens) (UniProt Q9BYT3)", "%", 28.5),
    ("CNC[C@H]1OCc2cnnn2CCCC(=O)N([C@H](C)CO)C[C@@H]1C", "Serine/threonine-protein kinase 33 (Homo sapiens) (UniProt Q9BYT3)", "%", 2.08),
    ("O=C(CSc1nnc(-c2ccccc2Cl)n1-c1ccccc1)Nc1ccc([N+](=O)[O-])cc1", "Serine/threonine-protein kinase 33 (Homo sapiens) (UniProt Q9BYT3)", "%", 1.7),
    ("O=C(CSc1nnc(-c2cccs2)n1-c1ccccc1Cl)Nc1cccc(C(=O)O)c1", "Serine/threonine-protein kinase 33 (Homo sapiens) (UniProt Q9BYT3)", "%", -0.392),
    ("Cc1cccc(C)c1NC(=O)CSc1nc(O)cc(=O)[nH]1", "Serine/threonine-protein kinase 33 (Homo sapiens) (UniProt Q9BYT3)", "%", -1.7),
    ("CC(C)CN1C(=O)[C@@]2(Cc3ccccc31)c1ccccc1C(=O)N(C1CCCCC1)[C@H]2c1ccc(CO)cc1", "Serine/threonine-protein kinase 33 (Homo sapiens) (UniProt Q9BYT3)", "%", -0.707),
]

###

Target: Serine/threonine-protein kinase 33 (Homo sapiens) (UniProt Q9BYT3)
Assay: STK33 kinase inhibitors, primary screen, biochemical, luminescence, ADP-Glo, MBP substrate (AID 2322)
Settings: at 12.5 µM, stronger effect = higher value
In all, about 27,000 compounds went through this assay and about 120 (0.44%) were called active. The sample holds actives, similar compounds and a random draw of the others, so the mix is not that of the screen.

# Compound, inhibition, %
rows = [
    ("CN1CCN(S(=O)(=O)c2ccc(NC(=O)C3CC=CCC3C(=O)O)cc2)CC1 (stereo not given)", -6.02),
    ("C=CCn1c(SCc2nc3ccccc3[nH]2)nnc1-c1cccc(C)c1", -1.59),
    ("COc1ccc(NC(=O)CSc2nnc(-c3ccc(Br)cc3)n2C)cc1", -2.11),
    ("O=C(O)CCCC(=O)Nc1ccc(F)cc1", -2.71),
    ("O=C(NCCCn1ccnc1)c1cc2c(s1)CCCC2", -4.73),
    ("O=C1O[C@@H](c2ccccc2)[C@@H](c2ccccc2)N2[C@@H](c3ccccc3OCCO)[C@]3(C(=O)Nc4ccc(C#CC5(O)CCCCCC5)cc43)[C@@H](C(=O)N3CCN(c4ncccn4)CC3)[C@H]12", 10.1),
    ("COc1ccc(N(CC(=O)Nc2ccc(F)c(F)c2)S(C)(=O)=O)cc1OC", 0.788),
    ("Cc1ccc(-c2ccc(CCC(=O)O)n2-c2ccc(C(N)=O)cc2)cc1", -3.89),
    ("O=C(c1ccc(NCc2cccnc2)c([N+](=O)[O-])c1)N1CCCCC1", 2.99),
    ("Cc1cc(C)c2oc(-c3cccc(NC(=O)COc4ccc(Br)cc4)c3C)nc2c1", 5.61),
    ("CCn1c(SCC(=O)Nc2cc(Cl)c(Cl)cc2Cl)nnc1-c1cc(Br)ccc1O", -2.32),
    ("COc1ccc(NC(=O)CSc2nncc3ccccc23)c([N+](=O)[O-])c1", -3.11),
    ("O=C(O)CCNS(=O)(=O)c1ccc2c(c1)OCCO2", 1.73),
    ("Cc1ccc(-c2nc(S(=O)(=O)c3ccc(Br)cc3)c(SCC(N)=O)o2)cc1", 4.38),
    ("COC(=O)c1ccc(NC(=O)CSc2nc(-c3ccccc3)cc(=O)[nH]2)cc1", 4.41),
    ("COc1ccc(NC(=O)COc2cc(C)c(Br)c(C)c2)c([N+](=O)[O-])c1", -1.64),
    ("Cc1cc(C)cc(NC(=O)CSc2nnc(-c3ccncc3)n2-c2ccccc2)c1", -3.15),
    ("O=C(CSc1nnc(-c2ccncc2)n1-c1ccccc1)Nc1ccc(OC(F)(F)F)cc1", 1.66),
    ("COc1cccc(NC(=O)N(C)C[C@@H]2OCc3cn(nn3)CCCC(=O)N([C@@H](C)CO)C[C@H]2C)c1", -4.73),
    ("O=C(Cn1ccc([N+](=O)[O-])n1)NCc1cccs1", 4.56),
]

###

Target: Serine/threonine-protein kinase 33 (Homo sapiens) (UniProt Q9BYT3)
Experiment: STK33 kinase inhibitors, primary screen, biochemical, luminescence, ADP-Glo, MBP substrate (AID 2322)
Details: at 12.5 µM, stronger effect = higher value
The whole screen tested about 27,000 compounds, of which about 120 (0.44%) were called active. What follows is part of a selection rich in actives, with near analogues and random picks from the rest.

# Test Smiles, inhibition
data = [
    ("S=c1cc(-c2ccccc2)oc(-c2ccccc2)c1", "9.05% (inactive)"),
    ("Cc1cc(C)cc(OCC(=O)Nc2cccc(-c3nnc(-c4ccccc4)o3)c2)c1", "4.59% (inactive)"),
    ("CCOC(=O)c1c(NC(=O)CSc2ncn[nH]2)sc2c1CCC2", "3.47% (inactive)"),
    ("c1ccc(-n2c(SCc3nc4ccccc4s3)nnc2-c2ccncc2)cc1", "1.5% (inactive)"),
    ("O=C(CSc1nnc(-c2ccccc2)n1-c1ccc(Cl)cc1)Nc1ccc(Cl)cc1", "-3.34% (inactive)"),
    ("CC(=O)c1cccc(N(CC(=O)Nc2ccccc2C(F)(F)F)S(C)(=O)=O)c1", "0.774% (inactive)"),
]

###

Catalogue of inhibition readings, one per entry.
Molecular target: Serine/threonine-protein kinase 33 (Homo sapiens)
Assay: STK33 kinase inhibitors, primary screen, biochemical, luminescence, ADP-Glo, MBP substrate (AID 2322)
Settings: at 12.5 µM, stronger effect = higher value
The whole screen tested about 27,000 compounds, of which about 120 (0.44%) were called active. The full list was thinned out, with actives kept by preference.

# Test Smiles, inhibition, %
rows = [
    ("Cn1c(=O)c2c(nc(SCC(=O)NC(C)(C)C)n2Cc2ccccc2F)n(C)c1=O", -1.84),
    ("COc1ccc(N(CC(=O)Nc2cc(C)ccc2OC)S(C)(=O)=O)cc1Cl", -2.26),
    ("CCN(CC)C(=O)c1ccc(O)c(OC)c1", 1.6),
    ("Cc1ccc(-c2nnc(SCC(=O)Nc3ccccc3OC(F)F)o2)cc1", 2.8),
]
